The entries below come with measured viability, T/C values attached.
test system: 485176-168-R4-J1-PDC complex spheroid growth; test: Anticancer human tumor 485176-168-R4-J1-PDC patient-derived pancreatic adenocarcinoma cell line growth inhibition [RAS]; conditions: second compound 1 µM; first compound 0.01 µM; active compounds read low;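 further: spheroids exposed to compounds for seven days before readout; luminescence viability expressed relative to DMSO vehicle wells set as 100%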

In: Checklist item: viability, T/C tested on 485176-168-R4-J1-PDC complex spheroid growth, entry CC(C)n1nc(-c2ccc3oc(N)nc3c2)c2c(N)ncnc21 + C#Cc1c(F)ccc2cc(O)cc(-c3ncc4c(N5CC6CCC(C5)N6)nc(OCC56CCCN5CC(F)C6)nc4c3F)c12 , value?;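 further: spheroids exposed to compounds for seven days before readout; luminescence viability expressed relative to DMSO vehicle wells set as 100%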
Out: 55.9%

In: What about C=CC(=O)Nc1cc(Nc2nccc(-c3cn(C)c4ccccc34)n2)c(OC)cc1N(C)CCN(C)C + C#Cc1c(F)ccc2cc(O)cc(-c3ncc4c(N5CC6CCC(C5)N6)nc(OCC56CCCN5CC(F)C6)nc4c3F)c12 ?
Out: 80.8%

In: What about C=CC(=O)Nc1cc(Nc2nccc(-c3cn(C)c4ccccc34)n2)c(OC)cc1N(C)CCN(C)C + C=CC(=O)N1CCN(c2nc(OCC3CCCN3C)nc3c(F)c(-c4nc(N)cc(C)c4C(F)(F)F)c(Cl)cc23)C(C)C1 ?
Out: 99.6%

Each recorded value in this set is attributed to PubChem BioAssay AID2060906.
